- Read-out: 3-Hydroxy-3-Methylglutaryl-CoA Synthase 2 (HMGCS2), HMGCS2 (gene 3158)
- experimental-protocol: LTEA_HepaRG_HMGCS2: Life Technologies and Expression Analysis (LTEA) Assay for 3-Hydroxy-3-Methylglutaryl-CoA Synthase 2 (HMGCS2) using HepaRG (AID 2283504)
- measurement-setup: mRNA level, 48 h; actives raise or lower the signal
Active and inactive are the calls of the source. The calls were made as follows: active = hit-call score of the fitted dose curve at least 0.9, where 1 is the maximum; inactive = score below 0.9.
quantity-measured: AC50

Check out these entries, answers already filled in.
1) COc1ccc(C(=O)Nc2nc3ccccc3c(NCc3ccccc3)c2C#N)cc1; inactive
2) O=C(O)CN(CC(=O)O)CC(=O)O; inactive
3) C/C=C/C=C/C(=O)O; inactive
4) O=Cc1ccccc1C=O; inactive
5) CCOCCOCCO; inactive

Next compound, AC50 to be filled in.
Please list AC50 recorded for the compound "O=C1OC(c2ccc(O)cc2)(c2ccc(O)cc2)c2ccccc21"
67.6 µM (active)

Values from PubChem BioAssay (EPA / NIEHS)
